Below, each entry is listed with its recorded pIC50.
molecular target: IL-6 (mature human interleukin-6) (Homo sapiens, UniProt P05231 SEQ:1-184); test: cell_activity; details: tags: untagged, R&D Systems; biotinylated with NHS-PEO4-biotin for SELEX
Sequence (P05231 29-212): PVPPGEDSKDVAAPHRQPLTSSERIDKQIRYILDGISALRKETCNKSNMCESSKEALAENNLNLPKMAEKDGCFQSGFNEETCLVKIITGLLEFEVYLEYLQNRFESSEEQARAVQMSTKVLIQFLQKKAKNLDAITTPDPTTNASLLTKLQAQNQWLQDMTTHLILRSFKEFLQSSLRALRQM
Scale: negative log10 of molar concentration, which is what pIC50 denotes.

Exercise: Requested field: pIC50. Item: GGCAGGUUUGGUAUUAACACGUUAAGUCGUGG (ssDNA, G-G-C1-A-G-G1-Bn-Bn-Pe2-G-G-Nap-A-Bn-Bn-A1-A-C-A1-C1-G-Bn-Bn2-A-A-G-Bn-C1-G-Bn2-G-G (1=2'-OMe, 2=PS)) [2573-20_780]
Key: 10.06

Exercise: Another binder: GGGUUAUGUAGCGUGCGUAAGGCGGU (ssDNA, G-G1-G-Nap1-Nap2-A-Nap-G-Nap1-A-G-C-C3-C3-G1-U1-G1-C-G-Nap1-A-A-G-G-C-G1-G1-Nap1 (1=2'-OMe, 2=PS)) [2574-49_338]
Key: 10.70

Exercise: Another binder: GGGUUAUGUAGCGUGCGUAAGGCGGU (ssDNA, G-G1-G-Nap1-Nap2-A2-Nap2-G-Nap1-A2-G1-C1-C3-C3-G1-U1-G1-C2-G2-Nap1-A2-A2-G2-G1-C2-G1-G1-Nap1 (1=2'-OMe, 2=PS)) [2574-49_411]
Key: 8.24

Exercise: Another binder: GGGUUAUGUAGCGUGCGUAAGGCGGU (ssDNA, G-G1-G-Nap1-Nap-A-Nap-G-Nap1-A-G-C-C3-C3-G-U1-G1-C-G-Nap1-A-A-G-G-C-G1-G1-Nap1 (1=2'-OMe)) [2574-49_326]
Key: 9.96
